Target: TGF-beta receptor type-2 (Homo sapiens); further: in the data inactive means no Kd found up to 30 µM
Sequence (P37173 whole entry): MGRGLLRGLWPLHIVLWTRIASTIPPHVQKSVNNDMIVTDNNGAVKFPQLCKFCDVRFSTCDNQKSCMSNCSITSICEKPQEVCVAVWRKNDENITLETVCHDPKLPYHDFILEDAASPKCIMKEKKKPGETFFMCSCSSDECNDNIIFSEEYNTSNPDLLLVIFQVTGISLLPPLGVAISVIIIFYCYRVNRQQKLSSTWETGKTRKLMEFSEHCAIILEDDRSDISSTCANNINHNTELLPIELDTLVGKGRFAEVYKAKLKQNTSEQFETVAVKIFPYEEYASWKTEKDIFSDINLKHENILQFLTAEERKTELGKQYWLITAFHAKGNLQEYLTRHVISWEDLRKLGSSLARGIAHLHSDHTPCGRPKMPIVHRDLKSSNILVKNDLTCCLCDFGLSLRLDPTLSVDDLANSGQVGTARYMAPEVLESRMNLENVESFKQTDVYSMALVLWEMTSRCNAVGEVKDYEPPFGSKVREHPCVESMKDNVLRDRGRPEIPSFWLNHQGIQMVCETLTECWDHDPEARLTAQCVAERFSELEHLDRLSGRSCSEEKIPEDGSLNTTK
Active and inactive are the calls of the source.
Result category, one only: TRUE (active), FALSE (inactive)

# fetch the recorded call for CCN(CCCOc1ccc2c(Nc3cc(CC(=O)Nc4cccc(F)c4)n[nH]3)ncnc2c1)CCOP(=O)(O)O here
FALSE

What call does the record list for COc1ccc2c(OCc3nnc4ccc(-c5ccccc5)nn34)ccnc2c1 ?
FALSE

GET /call?item= COc1cccc(Nc2ncnn3ccc(CN4CC[C@@H](N)[C@H](O)C4)c23)c1 returns the recorded outcome of this test.
FALSE

For CNC(=O)c1cc(COc2nnc(Nc3ccc(Cl)cc3)c3ccoc23)ccn1 , which call appears in the assay record?
FALSE

Hi team, can someone confirm the assay call for COc1cc2ncnc(Nc3ccc(O)cc3)c2cc1OC ?
FALSE

Name the outcome recorded for COCCN1CCN(Cc2ccc(-c3n[nH]c4c3C(=O)c3c(NC(=O)NN5CCOCC5)cccc3-4)cc2)CC1 in the assay.
TRUE

What did this assay record as the result for CC(C)CC(=O)Nc1[nH]nc2c1CN(C(=O)C1CCN(C)CC1)C2(C)C ?
FALSE

I would be grateful if you could indicate the recorded call for CNC(=O)c1ccc(Nc2ncc(C(F)(F)F)c(NCc3nccnc3N(C)S(C)(=O)=O)n2)cc1 .
FALSE

====

Molecular target: Activin receptor type-1B (Homo sapiens, UniProt P36896); further: in the data inactive means no Kd found up to 30 µM
Sequence (P36896 whole entry): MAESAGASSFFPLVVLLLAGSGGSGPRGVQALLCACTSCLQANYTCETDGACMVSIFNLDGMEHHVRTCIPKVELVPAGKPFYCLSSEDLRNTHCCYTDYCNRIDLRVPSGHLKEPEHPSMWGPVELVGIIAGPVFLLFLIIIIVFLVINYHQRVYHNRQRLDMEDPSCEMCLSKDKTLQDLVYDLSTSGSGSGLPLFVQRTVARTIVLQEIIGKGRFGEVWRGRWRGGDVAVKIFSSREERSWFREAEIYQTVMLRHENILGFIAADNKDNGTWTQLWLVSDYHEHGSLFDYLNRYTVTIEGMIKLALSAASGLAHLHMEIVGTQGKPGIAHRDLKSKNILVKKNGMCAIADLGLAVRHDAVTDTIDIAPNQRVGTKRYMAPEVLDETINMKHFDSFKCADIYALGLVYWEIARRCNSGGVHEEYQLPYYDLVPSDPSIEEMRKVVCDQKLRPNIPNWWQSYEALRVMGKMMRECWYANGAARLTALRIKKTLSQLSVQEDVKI
Active and inactive are the calls of the source.
Response enum: TRUE (active), FALSE (inactive)

What classification did COc1cc2ncnc3c2cc1OCCCCCN(C)Cc1ccc(Br)cc1N3 [JNJ-26483327] end up with in this test?
FALSE

Recorded test outcome, item O[C@H]1CC[C@H](Nc2ncc3nc(Nc4c(F)cc(F)cc4F)n([C@H]4CCOC4)c3n2)CC1 [TANZISERTIB]
FALSE

Outcome? FC(F)(F)c1ccc(CNc2ccc(Cc3c[nH]c4ncc(Cl)cc34)cn2)cn1 [PEXIDARTINIB]
FALSE

Fill in: this test's call for COc1ccc(-c2ccc3ncc4c(c3c2)n(-c2ccc(N3CCNCC3)c(C(F)(F)F)c2)c(=O)n4C)cn1 [BGT-226 FREE BASE] is ___
FALSE

Could you check what this test reported for CNC(=O)c1cc(COc2nnc(Nc3ccc(Cl)cc3)c3ccoc23)ccn1 [TELATINIB] ?
FALSE

Query: recorded result category for c1cc(OCCN2CCCCC2)cc(-c2n[nH]c3ccc(-c4nc[nH]n4)cc23)c1 [CC-401] in this test
FALSE

Lab log entry: COCCN1CCN(Cc2ccc(-c3n[nH]c4c3C(=O)c3c(NC(=O)NN5CCOCC5)cccc3-4)cc2)CC1 [RGB-286638] — outcome as called in the assay?
FALSE

What did this assay record as the result for CNC(=O)c1ccc(Nc2ncc(C(F)(F)F)c(NCc3nccnc3N(C)S(C)(=O)=O)n2)cc1 [DEFACTINIB] ?
FALSE

Could you kindly confirm the outcome this assay logged for Cc1cc(C(=O)Nc2cc(Oc3ccc4nc(NC(=O)C5CC5)cn4n3)ccc2C)n(C)n1 [TAK-593] ?
FALSE

Would you mind telling me which call this test gave Cn1c(=O)n(-c2ccc(C(C)(C)C#N)cc2)c2c3cc(-c4cnc5ccccc5c4)ccc3ncc21 [DACTOLISIB] ?
FALSE

// outcome(item) with item = NC(=O)c1ccc(N(C(N)=O)c2c(F)cccc2F)nc1-c1ccc(F)cc1F [VX-702]
FALSE

So what was the verdict on COc1cc2nccc(Oc3ccc(NC(=O)C4(C(=O)Nc5ccc(F)cc5)CC4)cc3)c2cc1OC [CABOZANTINIB] in this test?
FALSE

Could you please tell me the result logged for N#CCNC(=O)c1ccc(-c2ccnc(Nc3ccc(N4CCOCC4)cc3)n2)cc1 [MOMELOTINIB] in this assay?
FALSE

Recorded test outcome, item CCN1CCN(Cc2ccc(Nc3ncc(F)c(-c4cc(F)c5nc(C)n(C(C)C)c5c4)n3)nc2)CC1 [ABEMACICLIB]
FALSE

Given CNC(=O)c1cccc(-c2ccc3c(N4CCOC[C@@H]4C)nc(N4CCOC[C@@H]4C)nc3n2)c1 [VISTUSERTIB] , state the outcome it received in this test.
FALSE

Per the assay record, what outcome was assigned to CC1(COc2ccc3c(c2)ncn3-c2ccc3cccc(N4CCC(N)CC4)c3n2)COC1 [CRENOLANIB] ?
FALSE

Which outcome was entered for the compound O=S(=O)(c1cccc2c(O)nccc12)N1CCCNCC1 [HYDROXYFASUDIL] in this test?
FALSE

For COc1cc(F)c(F)c(Nc2ccc(I)cc2F)c1NS(=O)(=O)C1(C[C@H](O)CO)CC1 [REFAMETINIB] , which call appears in the assay record?
FALSE

What is the recorded call for this compound in the test? O=S(=O)(c1cccc2cnccc12)N1CCCNCC1 [FASUDIL]
FALSE

Tell me the assay call for CCc1cc2c(cc1N1CCC(N3CCOCC3)CC1)C(C)(C)c1[nH]c3cc(C#N)ccc3c1C2=O [ALECTINIB] please.
FALSE

# fetch the recorded call for Cn1c(=O)c(F)c(Nc2ccc(I)cc2F)c2c(=O)n(C[C@@H](O)CO)cnc21 [TAK-733] here
FALSE

Status in this test for CC(C)CC(=O)Nc1[nH]nc2c1CN(C(=O)C1CCN(C)CC1)C2(C)C [PHA-793887] ?
FALSE

I would be grateful if you could indicate the recorded call for O=C(NOC[C@H](O)CO)c1ccc(F)c(F)c1Nc1ccc(I)cc1F [MIRDAMETINIB] .
FALSE

Status in this test for Cc1ccc(C(=O)Nc2ccc(Oc3cc4cnn(C)c4cc3-c3cn[nH]c3)c(F)c2)c(=O)n1-c1ccc(F)cc1 [MERESTINIB] ?
FALSE

Tell me the recorded outcome of this test for CCN(CCCOc1ccc2c(Nc3cc(CC(=O)Nc4cccc(F)c4)n[nH]3)ncnc2c1)CCOP(=O)(O)O [BARASERTIB] .
FALSE

Field: outcome | Entry: COc1cccc2cc(-c3nc([C@H]4CC[C@H](C(=O)O)CC4)n4ncnc(N)c34)[nH]c12 [OSI-027]
TRUE

Which result was noted for this compound in the test: COc1cc(Nc2ncc(F)c(Nc3ccc4c(n3)N(COP(=O)(O)O)C(=O)C(C)(C)O4)n2)cc(OC)c1OC [FOSTAMATINIB]
FALSE

Test call for this compound, please: Cc1cc(-c2cc(OC(=O)c3ccccc3)ccc2Cl)cc2nnc(Nc3ccc(OCCN4CCCC4)cc3)nc12 [TG100-801]
FALSE

Short answer needed: outcome of this test for COc1ccc2c(OCc3nnc4ccc(-c5ccccc5)nn34)ccnc2c1 [AMG-208] ?
FALSE

Status in this test for O=C(Nc1ccc(OC(F)(F)F)cc1)c1sccc1NCc1ccnc2ccccc12 [OSI-930] ?
FALSE

Query: recorded result category for CC(C)(O)CC(=O)NCCn1ccc2ncnc(Nc3ccc(Oc4cccc(C(F)(F)F)c4)c(Cl)c3)c21 [TAK-285] in this test
FALSE

Please state the recorded outcome for this compound: O=c1[nH]c([C@@H]2CCCN2)nc2c1oc1ccc(Cl)cc12
FALSE

====

Molecular target: Mitotic checkpoint serine/threonine-protein kinase BUB1 (Homo sapiens, UniProt O43683); further: in the data inactive means no Kd found up to 30 µM
Sequence (O43683 whole entry): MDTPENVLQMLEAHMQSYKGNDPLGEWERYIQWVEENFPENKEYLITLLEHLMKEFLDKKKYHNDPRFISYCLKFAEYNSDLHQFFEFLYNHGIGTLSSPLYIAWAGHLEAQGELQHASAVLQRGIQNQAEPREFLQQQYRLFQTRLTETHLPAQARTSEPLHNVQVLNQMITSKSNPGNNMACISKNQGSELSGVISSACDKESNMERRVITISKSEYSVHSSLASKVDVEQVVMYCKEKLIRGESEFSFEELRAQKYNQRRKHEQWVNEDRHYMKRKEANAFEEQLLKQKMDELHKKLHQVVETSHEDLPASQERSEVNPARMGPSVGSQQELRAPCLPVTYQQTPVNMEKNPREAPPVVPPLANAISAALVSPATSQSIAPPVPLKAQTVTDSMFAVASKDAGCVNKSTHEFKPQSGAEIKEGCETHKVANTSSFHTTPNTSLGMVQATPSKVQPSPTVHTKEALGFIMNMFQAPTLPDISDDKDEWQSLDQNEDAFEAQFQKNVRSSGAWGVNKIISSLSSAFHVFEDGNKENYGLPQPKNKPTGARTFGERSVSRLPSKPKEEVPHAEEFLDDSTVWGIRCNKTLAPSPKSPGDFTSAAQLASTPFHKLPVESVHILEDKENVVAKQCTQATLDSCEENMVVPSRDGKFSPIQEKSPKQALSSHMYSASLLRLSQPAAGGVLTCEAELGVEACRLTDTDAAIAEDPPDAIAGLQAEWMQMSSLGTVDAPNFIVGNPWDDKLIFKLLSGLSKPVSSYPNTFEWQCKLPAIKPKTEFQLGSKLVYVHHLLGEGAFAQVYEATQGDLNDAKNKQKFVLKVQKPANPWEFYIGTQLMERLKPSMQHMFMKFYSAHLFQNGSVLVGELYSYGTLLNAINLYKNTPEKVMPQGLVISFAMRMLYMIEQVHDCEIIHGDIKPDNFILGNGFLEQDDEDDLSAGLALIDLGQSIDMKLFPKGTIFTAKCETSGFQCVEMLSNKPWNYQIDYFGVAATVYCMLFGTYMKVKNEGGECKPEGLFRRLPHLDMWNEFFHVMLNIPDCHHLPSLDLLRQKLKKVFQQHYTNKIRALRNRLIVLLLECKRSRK
The source made the active and inactive calls.
Choose the fitting class; nothing outside active, inactive is accepted.

Dear all, I need the recorded test outcome for O=C(Nc1ccc(OC(F)(F)F)cc1)c1sccc1NCc1ccnc2ccccc12 , thank you.
inactive

Hi, sorry to bother you, what did the test record for COc1ccc2c(OCc3nnc4ccc(-c5ccccc5)nn34)ccnc2c1 ?
inactive

Call for entry CCc1cc2c(cc1N1CCC(N3CCOCC3)CC1)C(C)(C)c1[nH]c3cc(C#N)ccc3c1C2=O :
inactive

State the result this test recorded for C=CCn1c(=O)c2cnc(Nc3ccc(N4CCN(C)CC4)cc3)nc2n1-c1cccc(C(C)(C)O)n1 .
inactive

What outcome does the record of this test show for O=c1[nH]c([C@@H]2CCCN2)nc2c1oc1ccc(Cl)cc12 ?
inactive

Please let me know the test result on file for COc1ccc(-c2ccc3ncc4c(c3c2)n(-c2ccc(N3CCNCC3)c(C(F)(F)F)c2)c(=O)n4C)cn1 [BGT-226 FREE BASE] .
inactive

Please let me know the test result on file for CN(C)C/C=C/C(=O)Nc1cc2c(Nc3ccc(F)c(Cl)c3)ncnc2cc1O[C@H]1CCOC1 .
inactive

Query: recorded result category for COc1cc2c(Oc3ccc4[nH]c(C)cc4c3F)ncnc2cc1OCCCN1CCCC1 in this test
inactive

Call for entry Cc1cc(Nc2nc(N[C@@H](C)c3ncc(F)cn3)ncc2Cl)n[nH]1 :
inactive

Would you mind telling me which call this test gave CNC(=O)c1cc(COc2nnc(Nc3ccc(Cl)cc3)c3ccoc23)ccn1 ?
inactive

Given NC(=O)c1ccc(N(C(N)=O)c2c(F)cccc2F)nc1-c1ccc(F)cc1F , state the outcome it received in this test.
inactive

Assay outcome for CCc1nc(C(N)=O)c(Nc2ccc(N3CCC(N4CCN(C)CC4)CC3)c(OC)c2)nc1NC1CCOCC1 : what was it?
active

Test call for this compound, please: Cn1c(=O)n(-c2ccc(C(C)(C)C#N)cc2)c2c3cc(-c4cnc5ccccc5c4)ccc3ncc21
inactive

Which outcome did this test record for the compound COc1cccc(Nc2ncnn3ccc(CN4CC[C@@H](N)[C@H](O)C4)c23)c1 ?
inactive

Identify the outcome logged in this assay for the compound shown: COc1cc2nccc(Oc3ccc(NC(=O)C4(C(=O)Nc5ccc(F)cc5)CC4)cc3)c2cc1OC [CABOZANTINIB]
inactive

What outcome does the record of this test show for O[C@H]1CC[C@H](Nc2ncc3nc(Nc4c(F)cc(F)cc4F)n([C@H]4CCOC4)c3n2)CC1 ?
inactive

How did this test come out for C#Cc1cccc(Nc2ncnc3cc4c(cc23)OCCOCCOCCO4)c1 ?
active

Check the results log: what was the call for FC(F)(F)c1ccc(CNc2ccc(Cc3c[nH]c4ncc(Cl)cc34)cn2)cn1 ?
inactive

Each compound tested received a call. Report the one for CC1(C)CNc2cc(NC(=O)c3cccnc3NCc3ccncc3)ccc21 .
inactive

How was O=S(=O)(c1cccc2c(O)nccc12)N1CCCNCC1 [HYDROXYFASUDIL] classified in this test?
inactive

Please share the test call associated with C=CC(=O)Nc1cc(Nc2nccc(-c3cn(C)c4ccccc34)n2)c(OC)cc1N(C)CCN(C)C .
inactive

Answer briefly: the call reported for O=S(=O)(c1cccc2cnccc12)N1CCCNCC1 in this assay.
inactive

So what was the verdict on CNC(=O)c1ccc(Nc2ncc(C(F)(F)F)c(NCc3nccnc3N(C)S(C)(=O)=O)n2)cc1 in this test?
inactive

Assay result, entry COc1cccc2cc(-c3nc([C@H]4CC[C@H](C(=O)O)CC4)n4ncnc(N)c34)[nH]c12 — outcome?
inactive

What classification did CC(C)CC(=O)Nc1[nH]nc2c1CN(C(=O)C1CCN(C)CC1)C2(C)C end up with in this test?
inactive

Could you please tell me the result logged for CNC(=O)c1cccc(-c2ccc3c(N4CCOC[C@@H]4C)nc(N4CCOC[C@@H]4C)nc3n2)c1 in this assay?
inactive

Hello, I am checking results. What call was entered for Cc1c(Cn2c(C)nc3c(C(=O)O)cc(N4CCOCC4)cc32)cccc1C(F)(F)F ?
inactive

// param item: COc1cc2ncnc(Nc3ccc(F)c(Cl)c3)c2cc1NC(=O)/C=C/CN1CCCCC1 [DACOMITINIB ANHYDROUS] ; yields the recorded call
inactive

// param item: COCCN1CCN(Cc2ccc(-c3n[nH]c4c3C(=O)c3c(NC(=O)NN5CCOCC5)cccc3-4)cc2)CC1 ; yields the recorded call
inactive

Outcome logged for COc1cc2ncnc(Nc3ccc(O)cc3)c2cc1OC in this assay:
inactive

Please let me know the test result on file for CN(c1ncccc1CNc1nc(Nc2ccc3c(c2)CC(=O)N3)ncc1C(F)(F)F)S(C)(=O)=O .
inactive

Given O=C(NOC[C@H](O)CO)c1ccc(F)c(F)c1Nc1ccc(I)cc1F , state the outcome it received in this test.
inactive

Just curious, what result did N#CCNC(=O)c1ccc(-c2ccnc(Nc3ccc(N4CCOCC4)cc3)n2)cc1 get here?
inactive
